Biological target: Dimer of Gag-Pol polyprotein [489-587,Q496K,L499I,M525I,N526D,M535I,R546K,L552P,A560V,G562S,I573V,L579M,I582L] (Human immunodeficiency virus 1, UniProt P12497, A560V/G562S/I573V/I582L/L499I/L552P/L579M/M525I/M535I/N526D/Q496K/R546K)
Construct: 489-587
Experiment: Protease Inhibition Assay
What pIC50 was measured for each of the following?
Give bare numbers, as −log10 of the molar value.

INSERT INTO measurements (structure_notation, observed_measurement) VALUES
  ('O=C(N[C@H]1c2ccccc2OC[C@H]1O)[C@H](Cc1cccnc1)C[C@H](O)CN1CCN(Cc2cc3ccsc3s2)C[C@H]1C(=O)NCC(F)(F)F', 9.37);

Please give the measured pIC50 for this compound: O=C(N[C@H]1c2ccccc2OC[C@H]1O)[C@H](Cc1ccncc1)C[C@H](O)CN1CCN(Cc2cc3ccsc3s2)C[C@H]1C(=O)NCC(F)(F)F 8.92
